I'd be grateful if you could share measured IC50 for these entries.
# assayed-target: Polyamine deacetylase HDAC10 (Homo sapiens)
# Sequence (Q969S8 whole entry): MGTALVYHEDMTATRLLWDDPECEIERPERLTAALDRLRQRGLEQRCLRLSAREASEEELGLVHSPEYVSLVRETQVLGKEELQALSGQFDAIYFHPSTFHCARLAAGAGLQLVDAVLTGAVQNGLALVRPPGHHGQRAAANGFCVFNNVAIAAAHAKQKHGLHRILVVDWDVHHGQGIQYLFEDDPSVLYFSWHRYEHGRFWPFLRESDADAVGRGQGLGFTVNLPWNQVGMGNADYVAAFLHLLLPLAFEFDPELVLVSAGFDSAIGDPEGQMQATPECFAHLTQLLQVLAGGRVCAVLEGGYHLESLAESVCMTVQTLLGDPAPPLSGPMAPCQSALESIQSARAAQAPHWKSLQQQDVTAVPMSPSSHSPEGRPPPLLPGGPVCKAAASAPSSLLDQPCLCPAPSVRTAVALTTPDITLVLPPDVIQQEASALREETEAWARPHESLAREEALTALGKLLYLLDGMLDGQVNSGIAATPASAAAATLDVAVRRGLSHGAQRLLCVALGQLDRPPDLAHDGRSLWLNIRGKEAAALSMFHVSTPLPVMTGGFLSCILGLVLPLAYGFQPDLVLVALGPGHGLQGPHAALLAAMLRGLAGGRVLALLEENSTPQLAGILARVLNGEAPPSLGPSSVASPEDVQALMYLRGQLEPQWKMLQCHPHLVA
The reply should consist of the numeric value with the unit placed after it.

[[record]]
compound = "Cc1ccc(CN2C(=O)N(c3ccc(Cl)cc3)C(=O)C2CCC(=O)Nc2ccc(C(=O)NO)cc2)cc1 (configuration not stated)"
measured_result = "164 nM"


Query compound follows.
input: Query (compound): O=C(CCC1C(=O)N(c2ccc(Cl)cc2)C(=O)N1Cc1ccc(Br)cc1)Nc1ccc(C(=O)NO)cc1 (configuration not stated) ; field requested: IC50
output: 268 nM

* * *

I'd be grateful if you could share measured IC50 for these entries.
# assayed-target: Protein deacetylase HDAC6 (Homo sapiens, UniProt Q9UBN7)
# Sequence (Q9UBN7 whole entry): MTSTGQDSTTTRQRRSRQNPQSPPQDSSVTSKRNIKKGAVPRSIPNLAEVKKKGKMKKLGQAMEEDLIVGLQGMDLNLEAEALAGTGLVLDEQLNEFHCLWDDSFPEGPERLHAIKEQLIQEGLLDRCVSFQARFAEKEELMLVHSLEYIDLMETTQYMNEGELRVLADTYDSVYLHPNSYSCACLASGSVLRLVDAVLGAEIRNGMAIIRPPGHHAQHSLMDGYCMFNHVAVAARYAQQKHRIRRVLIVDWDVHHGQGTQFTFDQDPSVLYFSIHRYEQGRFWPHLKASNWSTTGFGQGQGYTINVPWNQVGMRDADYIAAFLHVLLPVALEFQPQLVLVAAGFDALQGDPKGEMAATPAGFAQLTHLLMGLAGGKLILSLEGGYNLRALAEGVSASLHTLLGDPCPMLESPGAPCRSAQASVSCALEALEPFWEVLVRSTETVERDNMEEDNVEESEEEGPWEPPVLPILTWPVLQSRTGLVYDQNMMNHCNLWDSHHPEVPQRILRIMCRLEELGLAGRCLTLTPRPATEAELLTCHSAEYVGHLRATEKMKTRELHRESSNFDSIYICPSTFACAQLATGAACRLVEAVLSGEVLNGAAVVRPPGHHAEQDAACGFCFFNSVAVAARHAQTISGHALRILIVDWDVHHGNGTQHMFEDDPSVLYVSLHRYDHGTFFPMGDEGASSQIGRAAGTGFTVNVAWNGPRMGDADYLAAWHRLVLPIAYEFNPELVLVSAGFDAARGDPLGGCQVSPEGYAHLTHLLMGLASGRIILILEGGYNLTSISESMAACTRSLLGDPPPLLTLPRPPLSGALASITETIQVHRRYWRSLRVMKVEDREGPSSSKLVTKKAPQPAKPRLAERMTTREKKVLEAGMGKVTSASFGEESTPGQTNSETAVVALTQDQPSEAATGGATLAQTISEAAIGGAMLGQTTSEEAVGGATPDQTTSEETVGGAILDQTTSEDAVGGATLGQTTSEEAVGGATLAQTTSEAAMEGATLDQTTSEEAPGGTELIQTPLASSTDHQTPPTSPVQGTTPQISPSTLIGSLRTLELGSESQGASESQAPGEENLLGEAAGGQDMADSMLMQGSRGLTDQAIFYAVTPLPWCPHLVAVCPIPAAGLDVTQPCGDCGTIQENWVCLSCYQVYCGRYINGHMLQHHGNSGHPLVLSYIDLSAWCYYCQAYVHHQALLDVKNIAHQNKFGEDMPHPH
One number for each entry, in nM.

Solved entries (count: 3):
[[record]]
molecule = "CN1C(=O)N(c2ccc(Cl)cc2)C(=O)C1CCC(=O)Nc1ccc(C(=O)NO)cc1 (stereo not given)"
quantity_kind = "IC50"
measured_result = 7

[[record]]
molecule = "O=C(CCC1C(=O)N(c2ccccc2)C(=O)N1Cc1ccc(Br)cc1)NCc1ccc(C(=O)NO)cc1 (stereo not given)"
quantity_kind = "IC50"
measured_result = 13.6

[[record]]
molecule = "CCCN1C(=O)N(c2ccc(Cl)cc2)C(=O)C1CCC(=O)Nc1ccc(C(=O)NO)cc1 (stereo not given)"
quantity_kind = "IC50"
measured_result = 12.6


Query molecule follows.
input: Param readout= IC50; system= Protein deacetylase HDAC6 (Homo sapiens, UniProt Q9UBN7); entry= Cc1ccc(CN2C(=O)N(c3ccc(Cl)cc3)C(=O)C2CCC(=O)Nc2ccc(C(=O)NO)cc2)cc1 (stereo not given) ; returns value.
output: 4.4

* * *

# System: RPMI-8226
# method-notes: Antiproliferative activity against human RPMI8226 cells incubated for 48 hrs by MTT assay
# Assay type: functional, cell-based
# experimental-parameters: RPMI-8226, 48 h
I'd be grateful if you could share measured IC50 for these entries.
Answers are plain numbers, in nM.

Solved entries (count: 2):
[[record]]
molecule = "O=C(CCC1C(=O)N(c2ccc(Cl)cc2)C(=O)N1Cc1ccccc1)Nc1ccc(C(=O)NO)cc1 (stereo not drawn)"
assayed_target = "RPMI-8226"
measured_result = 640

[[record]]
molecule = "O=C(CCC1C(=O)N(c2ccc(Cl)cc2)C(=O)N1Cc1ccc(Br)cc1)Nc1ccc(C(=O)NO)cc1 (stereo not drawn)"
assayed_target = "RPMI-8226"
measured_result = 360


Query molecule follows.
input: Query (molecule): Cc1ccc(CN2C(=O)N(c3ccc(Cl)cc3)C(=O)C2CCC(=O)Nc2ccc(C(=O)NO)cc2)cc1 (stereo not drawn) ; field requested: IC50
output: 230
